experimental.target: HLA-DRB1*01:01 (Homo sapiens, UniProt P01903+P01911, A100R/D57E/F55L/F60I/F76Y/I96L/L162R/M171V/P40L/Q125E/R42F/V115G/Y59C)
Construct: EBV transformed homozygous cell lines were used as sources of MHC molecules; endogenous in cells; host or cells: EBV transformed homozygous cell lines
method.notes: HLA class II peptide binding, inhibition of radiolabeled peptide binding to purified MHC
reported.conditions: value of the wild-type (non-citrullinated) counterpart of the listed peptide; read-out: DRB1*01:01 binding capacity WT peptide (IC50 nM)
Square brackets hold non-standard residues; d marks the D form. Peptide text beside a SMILES is read from it. Cit = NC(=O)NCCC[C@H](N)C(=O)O
readout: log10(IC50) (log10 of the value in nM)
Scale type: logarithmic (base 10). Underlying IC50 unit: nM.

{"compound": "CC(C)C[C@H](NC(=O)[C@H](C)NC(=O)[C@@H](NC(=O)[C@H](Cc1ccc(O)cc1)NC(=O)[C@@H](NC(=O)[C@H](Cc1ccccc1)NC(=O)[C@H](CCCNC(N)=O)NC(=O)[C@H](CO)NC(=O)[C@@H](N)CC(N)=O)[C@@H](C)O)[C@@H](C)O)C(=O)N[C@@H](CCCCN)C(=O)N[C@@H](CC(=O)O)C(=O)NCC(=O)N[C@@H](CS)C(=O)N[C@H](C(=O)N[C@@H](CCCCN)C(=O)O)[C@@H](C)O [NSXFTYTALKDGCTK] (H-NS[Cit]FTYTALKDGCTK-OH)", "log10(IC50)": 1.18}
{"compound": "CC[C@H](C)[C@H](N)C(=O)N[C@@H](CCCNC(N)=O)C(=O)N[C@@H](C)C(=O)N[C@@H](CCC(=O)O)C(=O)NCC(=O)N[C@@H](CC(N)=O)C(=O)N[C@@H](CO)C(=O)N[C@@H](CCCNC(=N)N)C(=O)N[C@@H](Cc1ccccc1)C(=O)N[C@H](C(=O)N[C@@H](Cc1ccc(O)cc1)C(=O)N[C@H](C(=O)N[C@@H](C)C(=O)N[C@@H](CC(C)C)C(=O)N[C@@H](CCCCN)C(=O)O)[C@@H](C)O)[C@@H](C)O [IXAEGNSRFTYTALK] (H-I[Cit]AEGNSRFTYTALK-OH)", "log10(IC50)": 0.11}
{"compound": "CC[C@H](C)[C@H](NC(=O)[C@H](CC(=O)O)NC(=O)[C@H](CCSC)NC(=O)[C@@H]1CCCN1C(=O)[C@H](C)NC(=O)[C@@H](NC(=O)[C@H](CC(=O)O)NC(=O)[C@@H](NC(=O)[C@@H](NC(=O)[C@@H]1CCCN1C(=O)[C@H](CC(C)C)NC(=O)[C@H](CCCNC(N)=O)NC(=O)[C@H](CO)NC(=O)[C@@H](NC(=O)[C@@H](N)CCCCN)[C@@H](C)O)[C@@H](C)CC)[C@@H](C)CC)[C@@H](C)CC)C(=O)O [KTSXLPIIDIAPMDI] (H-KTS[Cit]LPIIDIAPMDI-OH)", "log10(IC50)": 2.56}
{"compound": "CC[C@H](C)[C@H](NC(=O)[C@@H](NC(=O)[C@@H](NC(=O)[C@H](CCCCN)NC(=O)CN)[C@@H](C)O)C(C)C)C(=O)N[C@@H](CCC(=O)O)C(=O)N[C@@H](Cc1ccc(O)cc1)C(=O)N[C@@H](CCCNC(N)=O)C(=O)N[C@@H](CO)C(=O)N[C@@H](CCC(N)=O)C(=O)N[C@@H](CCCCN)C(=O)N[C@H](C(=O)N[C@@H](CO)C(=O)N[C@@H](CCCNC(=N)N)C(=O)N[C@@H](CC(C)C)C(=O)O)[C@@H](C)O [GKTVIEYXSQKTSRL] (H-GKTVIEY[Cit]SQKTSRL-OH)", "log10(IC50)": 1.46}
{"compound": "CC[C@H](C)[C@H](N)C(=O)N[C@@H](CCCNC(=N)N)C(=O)N[C@@H](C)C(=O)N[C@@H](CCC(=O)O)C(=O)NCC(=O)N[C@@H](CC(N)=O)C(=O)N[C@@H](CO)C(=O)N[C@@H](CCCNC(N)=O)C(=O)N[C@@H](Cc1ccccc1)C(=O)N[C@H](C(=O)N[C@@H](Cc1ccc(O)cc1)C(=O)N[C@H](C(=O)N[C@@H](C)C(=O)N[C@@H](CC(C)C)C(=O)N[C@@H](CCCCN)C(=O)O)[C@@H](C)O)[C@@H](C)O [IRAEGNSXFTYTALK] (H-IRAEGNS[Cit]FTYTALK-OH)", "log10(IC50)": 0.11}

# context switch: different compound, same log10(IC50)
The compound listed as CC[C@H](C)[C@H](NC(=O)[C@H](CC(=O)O)NC(=O)[C@@H](NC(=O)[C@@H](NC(=O)[C@@H]1CCCN1C(=O)[C@H](CC(C)C)NC(=O)[C@H](CCCNC(N)=O)NC(=O)[C@H](CO)NC(=O)[C@@H](NC(=O)[C@H](CCCCN)NC(=O)[C@H](CCC(N)=O)NC(=O)[C@H](CO)NC(=O)[C@H](CCCNC(=N)N)NC(=O)[C@H](Cc1ccc(O)cc1)NC(=O)[C@@H](N)CCC(=O)O)[C@@H](C)O)[C@@H](C)CC)[C@@H](C)CC)C(=O)O [EYRSQKTSXLPIIDI] (H-EYRSQKTS[Cit]LPIIDI-OH) has a reported log10(IC50) of 1.15

---

experimental.target: HLA-DRB1*01:01 (Homo sapiens, UniProt P01903+P01911, A100R/D57E/F55L/F60I/F76Y/I96L/L162R/M171V/P40L/Q125E/R42F/V115G/Y59C)
Construct: EBV transformed homozygous cell lines were used as sources of MHC molecules; endogenous in cells; host or cells: EBV transformed homozygous cell lines
method.notes: HLA class II peptide binding, inhibition of radiolabeled peptide binding to purified MHC
reported.conditions: read-out: DRB1*01:01 binding capacity, WT peptide (IC50 nM)
Ends that are not written are not given here.
Please assign class 0 whenever IC50 is at or above 4000 nM, and class 1 whenever it is below.

For orientation, consider the following solved cases.
{"input.sequence": "QGKSRLGDLYEEEMR [Vimentin 141 WT]", "cat": "class 0"}
{"input.sequence": "FSLADAINTEFKNTR [Vimentin 86 WT]", "cat": "class 1"}
{"input.sequence": "VEVERDNLAEDIMRL [Vimentin 171 WT]", "cat": "class 0"}
{"input.sequence": "SPGGVYATRSSAVRL [Vimentin 56 WT]", "cat": "class 1"}
{"input.sequence": "ERKVESLQEEIAFLK [Vimentin 221 WT]", "cat": "class 1"}

In: Given the entry DNLAEDIMRLREKLQ [Vimentin 176 WT] , would its reported IC50 be below 4000 nM?
Out: class 0

In: Given the entry FKNTRTNEKVELQEL [Vimentin 96 WT] , would its reported IC50 be below 4000 nM?
Out: class 0

In: Given the entry RTYSLGSALRPSTSR [Vimentin 36 WT] , would its reported IC50 be below 4000 nM?
Out: class 1

In: Given the entry SKPDLTAALRDVRQQ [Vimentin 261 WT] , would its reported IC50 be below 4000 nM?
Out: class 0

---

IC50 values, listed per item
experimental.target: HLA-DRB1*04:01 (Homo sapiens, UniProt P01903+P01911, A100K/A169T/F76Y/I96L/K127E/L162R/M171V/N62H/P40V/Q125Y/R42H/S133A/S149N/S66Y/V115G/V209L/W38E)
Construct: EBV transformed homozygous cell lines were used as sources of MHC molecules; endogenous in cells; host or cells: EBV transformed homozygous cell lines
method.notes: HLA class II peptide binding, inhibition of radiolabeled peptide binding to purified MHC
reported.conditions: citrullinated 15-mer peptide (X = citrulline); purified HLA-DRB1*04:01; read-out: DRB1*04:01 binding capacity, Cit peptide (IC50 nM)
Square brackets hold non-standard residues; d marks the D form. Peptide text beside a SMILES is read from it. Cit = NC(=O)NCCC[C@H](N)C(=O)O

Check out these entries, answers already filled in.
{"compound": "CC(C)C[C@H](NC(=O)CNC(=O)[C@@H]1CCCN1C(=O)[C@H](C)NC(=O)CNC(=O)[C@@H]1CCCN1C(=O)[C@H](CC(C)C)NC(=O)CNC(=O)[C@H](CCCCN)NC(=O)[C@H](CCC(=O)O)NC(=O)CNC(=O)[C@H](C)NC(=O)[C@@H](N)CCCCN)C(=O)N[C@@H](CCCNC(N)=O)C(=O)NCC(=O)O [KAGEKGLPGAPGLXG] (H-KAGEKGLPGAPGL[Cit]G-OH)", "IC50": "> 40000 nM"}
{"compound": "CSCC[C@H](NC(=O)[C@@H](NC(=O)CNC(=O)[C@@H]1CCCN1C(=O)[C@H](CCC(N)=O)NC(=O)CNC(=O)[C@@H](N)CCCNC(N)=O)C(C)C)C(=O)NCC(=O)N[C@@H](Cc1ccccc1)C(=O)N1CCC[C@H]1C(=O)NCC(=O)N1CCC[C@H]1C(=O)N[C@@H](CCCCN)C(=O)NCC(=O)N[C@@H](C)C(=O)O [XGQPGVMGFPGPKGA] (H-[Cit]GQPGVMGFPGPKGA-OH)", "IC50": "> 40000 nM"}
{"compound": "CC[C@H](C)[C@H](NC(=O)[C@H](CC(C)C)NC(=O)[C@H](CC(C)C)NC(=O)[C@@H](NC(=O)[C@H](CCCNC(N)=O)NC(=O)[C@H](CCCCN)NC(=O)[C@H](CO)NC(=O)[C@H](Cc1c[nH]cn1)NC(=O)[C@@H](NC(=O)[C@H](CC(=O)O)NC(=O)[C@@H](NC(=O)[C@H](CC(C)C)NC(=O)[C@@H]1CCCN1C(=O)[C@@H](N)CC(C)C)C(C)C)[C@@H](C)O)[C@@H](C)O)C(=O)N[C@@H](CCCCN)C(=O)O [LPLVDTHSKXTLLIK] (H-LPLVDTHSK[Cit]TLLIK-OH)", "IC50": "2590 nM"}

# context switch: different compound, same IC50
The compound listed as CC(C)[C@H](NC(=O)[C@H](CCCNC(N)=O)NC(=O)CNC(=O)[C@H](C)NC(=O)[C@H](C)NC(=O)CNC(=O)[C@@H]1CCCN1C(=O)[C@H](Cc1ccccc1)NC(=O)CNC(=O)[C@@H](N)[C@@H](C)O)C(=O)NCC(=O)N1CCC[C@H]1C(=O)N1CCC[C@H]1C(=O)NCC(=O)N[C@@H](CO)C(=O)O [TGFPGAAGXVGPPGS] (H-TGFPGAAG[Cit]VGPPGS-OH) has a reported IC50 of > 40000 nM

Cited source for all entries: paper PMC5421785
